A collection of compounds and their measured AUC(0-t)
- Test Details: Balb/C mouse pharmacokinetics (plasma, colon, ileum)
- Type: in vivo
- Stated Conditions: male, po, Balb/C mice, p.o. 5 mg/kg, ileum, read-out: Curve area AUC0-t
Provide the reading as a plain figure in ng·h/mL.

Observe how each entry below is paired with its result.
Cc1cc(Nc2nc(N[C@@H]3C[C@H]4CC[C@@H](C3)N4S(=O)(=O)N3CC(C#N)C3)nc3ccccc23)n[nH]1; 1240
Cc1cc(Nc2nc(N[C@@H]3C[C@H]4CC[C@@H](C3)N4S(=O)(=O)N3CC(C#N)C3)nc3sccc23)n[nH]1; 15300

Turning now to a further record.
## Task Which AUC(0-t) value is on record for `Cc1cc(Nc2nc(N(C)[C@@H]3C[C@H]4CCC[C@@H](C3)N4C(=O)CN3CCN(C)CC3)nc3sccc23)n[nH]1` ?
## Result 104000

----------
As shown below, each of these molecules has a reported Cmax value.
- Test Details: Balb/C mouse pharmacokinetics (plasma, colon, ileum)
- Format: in vivo
- Stated Conditions: male, plasma, po, Balb/C mice, p.o. 5 mg/kg, blood, read-out: Blood concentration Cmax
Write the answer as a number in ng/mL, unit excluded.

Here are 5 molecules together with their reported answers.
Cc1cc(Nc2nc(N[C@@H]3C[C@H]4CC[C@@H](C3)N4CCC#N)nc3cc(Br)ccc23)n[nH]1; 16
Cc1cc(Nc2nc(N[C@@H]3C[C@H]4CCC[C@@H](C3)N4C(=O)c3ccncc3)nc3sccc23)n[nH]1; 8.01
Cc1cc(Nc2nc(N[C@@H]3C[C@H]4CC[C@@H](C3)N4S(=O)(=O)N3CC(C#N)C3)nc3ccccc23)n[nH]1; 9.69
Cc1cc(Nc2nc(N(C)[C@@H]3C[C@H]4CCC[C@@H](C3)N4C(=O)CN3CCN(C)CC3)nc3sccc23)n[nH]1; 33.9
Cc1cc(Nc2nc(N[C@@H]3C[C@H]4CCC[C@@H](C3)N4C(=O)CN3CCOCC3)nc3sccc23)n[nH]1; 5.56

## Task Item under review: `Cc1cc(Nc2nc(N[C@@H]3C[C@H]4CCC[C@@H](C3)N4S(=O)(=O)N3CC(C#N)C3)nc3sccc23)n[nH]1` . Reported Cmax?
## Result 12.7

----------
- Test Details: Balb/C mouse pharmacokinetics (plasma, colon, ileum)
- Type: in vivo
- Stated Conditions: male, po, Balb/C mice, p.o. 5 mg/kg, colon, read-out: Curve area AUC0-t
- Protocol: […] The main pharmacokinetic parameters were calculated with WinNonlin 6.1, and the results of mouse pharmacokinetic experiments are shown in Table 3: […]
Some molecules, each annotated with its measured AUC(0-t).
Express it in ng·h/mL; write the number only.

// worked examples, AUC(0-t) included
Cc1cc(Nc2nc(N[C@@H]3C[C@H]4CC[C@@H](C3)N4CCC#N)nc3ccsc23)n[nH]1; 9130
Cc1cc(Nc2nc(N[C@@H]3C[C@@H]4CN(CCC#N)C[C@@H]4C3)nc3ccsc23)n[nH]1; 948

## Task // returns reported AUC(0-t) for input `Cc1cnc(Nc2cc3ncccc3c(N[C@@H]3C[C@H]4CC[C@@H](C3)N4CCC#N)n2)s1`
## Result 8320

## Task // same read-out, input: `Cc1cc(Nc2nc(N[C@@H]3C[C@H]4CC[C@@H](C3)N4S(=O)(=O)N3CC(C#N)C3)nc3cc(Cl)ccc23)n[nH]1`
## Result 19500
